System: interleukin-8 secreted by normal human epidermal keratinocytes (NHEKs)
experimental.details: Inhibition of interleukin-8 secretion by NHEK cells after stimulation with PMA as irritant agent
Assay type: cell-based
condition.details: Study No. 2 (Comparative Tests), compound at 10 μM, same batch of NHEK cells, 160 nM PMA, 24 hours, read-out: % inhibition of secretion of IL-8
Procedure: Inhibition of the response of superficial epidermal cells to an irritant agent by assay of the interleukin-8 secreted by normal human epidermal keratinocytes (NHEKS) after stimulation with phorbol 12-myristate 13-acetate (PMA) as irritant agent. This study uses the test developed by Wilmer [Wilmer, J. L. et al., J. invest. Dermatol., 102: 915-922 (1994)]. […] The antiirritant effect of a molecule is then measured by means of its inhibitory action with respect to this exacerbated production. […]
quantity.measured: inhibition at 10 µM (%)
Reply with just the number (in %).

Lookup: Kindly state the measured inhibition at 10 µM obtained for COC(=O)CCCCn1cnc(-c2ccccc2)c1-c1ccccc1 with interleukin-8 secreted by normal human epidermal keratinocytes (NHEKs).
Found: 10

Lookup: Continue with c1ccc(-c2ncn(CCCN3CCOCC3)c2-c2ccccc2)cc1
Found: 35

Lookup: Continue with COC(=O)CCCn1cnc(-c2ccccc2)c1-c1ccccc1
Found: 22

Lookup: Continue with O=C1c2ccccc2C(=O)N1CCCn1cnc(-c2ccccc2)c1-c1ccccc1
Found: 37

Lookup: Continue with O=C1c2ccccc2C(=O)N1CCCCn1cnc(-c2ccccc2)c1-c1ccccc1
Found: 39

Lookup: Continue with c1ccc(-c2ncn(CCCN3CCCCC3)c2-c2ccccc2)cc1
Found: 41
